TEST_METHOD_NOTES: growth suppression of yeast trafficking mutant, preliminary HTS, modulators of trafficking downstream of Golgi apparatus project, 1536-format plate, OD 615 nm (AID 637); note: test concentration not given here
CONDITIONS_USED: yeast transport mutant growth, absorbance 615 nm, 18 h; active compounds read high
Listing: inhibition of selected compounds
// return numeric value only (unit: %, not printed)

Reference set (4 entries):
COMPOUND	inhibition (%)
CSc1nc2ccc(Nc3nc(N4CCOCC4)nc(N4CCOCC4)n3)cc2s1	-0.5
COc1ccc(S(=O)(=O)N2CCC(C(=O)NCc3ccco3)CC2)cc1	-3.97
CCn1cc(C(=O)O)c(=O)c2cc(F)c(N3CCNCC3)nc21	-2.33
CCOC(=O)CN(C)Cc1c[nH]c2ccccc12	7.14

Suppose we examine the compound O=C(c1ccco1)N1CCN(c2nc(C(F)(F)F)nc3c2nnn3Cc2ccccc2)CC1 ; what inhibition value has been reported?
-0.16

Item: CC(=O)O[C@H]1C(=O)[C@]2(C)[C@H]([C@H](OC(=O)c3ccccc3)[C@]3(O)C[C@H](OC(=O)[C@H](O)[C@@H](NC(=O)c4ccccc4)c4ccccc4)C(C)=C1C3(C)C)[C@]1(OC(C)=O)CO[C@@H]1C[C@@H]2O
-0.67

Item: COc1ccccc1C1N(c2ccc(F)cc2)C(=O)C2CCCN21 (stereo not drawn)
-1.27

Item: Clc1ccc(C2Nc3ccccc3-n3cccc32)cc1 (stereo not drawn)
7

Item: CCOC(=O)c1sc(NC(=O)CSc2n[nH]c(-c3ccccc3)n2)c(C#N)c1C
2.38
